Target: human TRPC6 (Homo sapiens, UniProt Q9Y210)
Construct: expressed in transfected cells
Sequence (Q9Y210 whole entry): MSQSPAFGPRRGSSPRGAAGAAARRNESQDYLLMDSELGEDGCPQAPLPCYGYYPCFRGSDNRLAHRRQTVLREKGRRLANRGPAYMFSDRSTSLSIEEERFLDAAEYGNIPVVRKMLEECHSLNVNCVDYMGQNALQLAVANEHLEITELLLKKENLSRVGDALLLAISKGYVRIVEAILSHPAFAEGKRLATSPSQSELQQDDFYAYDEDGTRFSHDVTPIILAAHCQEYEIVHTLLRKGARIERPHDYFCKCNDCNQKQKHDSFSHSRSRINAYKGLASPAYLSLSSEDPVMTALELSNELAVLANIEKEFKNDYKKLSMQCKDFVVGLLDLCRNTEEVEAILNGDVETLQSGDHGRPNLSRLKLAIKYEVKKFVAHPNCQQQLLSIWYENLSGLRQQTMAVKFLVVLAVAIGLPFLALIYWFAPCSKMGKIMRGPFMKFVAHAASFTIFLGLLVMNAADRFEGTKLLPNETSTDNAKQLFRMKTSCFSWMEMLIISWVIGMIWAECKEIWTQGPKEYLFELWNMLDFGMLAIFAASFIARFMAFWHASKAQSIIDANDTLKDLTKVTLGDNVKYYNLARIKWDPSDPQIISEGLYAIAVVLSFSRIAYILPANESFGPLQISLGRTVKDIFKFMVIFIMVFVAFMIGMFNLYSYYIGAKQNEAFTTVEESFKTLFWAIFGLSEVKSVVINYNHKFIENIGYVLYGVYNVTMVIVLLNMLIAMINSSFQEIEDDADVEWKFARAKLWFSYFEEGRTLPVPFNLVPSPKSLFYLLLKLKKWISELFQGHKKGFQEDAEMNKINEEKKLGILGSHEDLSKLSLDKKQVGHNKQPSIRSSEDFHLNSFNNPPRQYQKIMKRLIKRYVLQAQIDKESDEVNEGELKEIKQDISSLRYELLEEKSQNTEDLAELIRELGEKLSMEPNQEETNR
Experiment: High Throughput Screening Assay Method 2 (membrane potential dye, GSK1702934A agonist, HEK293 stably transfected with human TRPC6)
Assay type: cell-based
Settings: antagonist effect against human TRPC6, 3 μM GSK1702934A agonist, HEK293 TRPC6 cells, read-out: Fluorescence TRPC6 IC50
pIC50: −log10 of the molar value.
value.kind: pIC50

compound: COc1cc(C(=O)N2CCC(c3cnc(N)cc3OC)CC2)c(F)cc1OCC(C)C
numeric.value: 6.60
//
compound: COc1cc(N)ncc1C1CCN(C(=O)c2ccc(OCc3ccccc3)cc2F)CC1
numeric.value: 5.74
//
compound: Nc1ccc(C2CCN(C(=O)c3ccc(Oc4ccc(F)cc4)c(F)c3)CC2)nn1
numeric.value: 6.85
//
compound: COc1cc(N)ncc1C1CCN(C(=O)c2ccc(OCc3csnn3)cc2F)CC1
numeric.value: 6.32
//
compound: CCCOc1ccc(C(=O)N2CCC(c3cnc(N)cc3OC)CC2)c(F)c1
numeric.value: 6.18
//
compound: COc1cc(N)ncc1C1CCN(C(=O)c2ccc(OCCC3CC3)cc2F)CC1
numeric.value: 6.10
//
compound: COc1cc(N)ncc1C1CCN(C(=O)c2ccc(Oc3ccc(F)cc3)cc2)CC1
numeric.value: 7.01
//
compound: COc1cc(C(=O)N2CCC(c3cnc(N)cc3OC)CC2)ccc1OCC1CCC1
numeric.value: 6.70
//
compound: COc1cc(N)ncc1C1CCN(C(=O)c2ccc(OCC3CCCCC3)cc2F)CC1
numeric.value: 5.66
//
compound: COc1cc(N)ncc1N1CCN(C(=O)c2ccc(Oc3ccc(F)cc3)cc2F)C2(CC2)C1
numeric.value: 7.01
//
compound: COc1cc(C(=O)N2CCC(c3cnc(N)cc3OC)CC2)c(F)cc1OCC1CC(F)(F)C1
numeric.value: 6.32
//
compound: Nc1ccc(C2CCN(C(=O)c3ccc(Oc4ccccc4)c(C(F)(F)F)c3)CC2)nn1
numeric.value: 5.93
//
compound: COc1cc(N)ncc1C1CCN(C(=O)c2cc(F)c(Oc3ccc(F)cc3)cc2F)CC1
numeric.value: 6.78
//
compound: COc1cc(C(=O)N2CCC(c3ccc(N)nn3)CC2)c(F)cc1Oc1ccc(F)cc1
numeric.value: 7.47
//
compound: COc1cc(N)ncc1C1CCN(C(=O)c2ccc(Oc3ccc(F)cc3)cc2F)CC1
numeric.value: 6.69
//
compound: COc1cc(C(=O)N2CCC(c3cnc(N)cc3OC)CC2)c(F)cc1OCC1CC1
numeric.value: 6.81
//
compound: COc1cc(C(=O)N2CCC(c3cnc(N)cc3OC)CC2)c(F)cc1Oc1ccc(F)cc1
numeric.value: 6.80
//
compound: Cc1cc(C2CCN(C(=O)c3ccc(Oc4ccc(F)cc4)cc3)CC2)nnc1N
numeric.value: 6.54
//
compound: COc1cc(C(=O)N2CCC(c3nnc(N)cc3C)CC2)c(F)cc1Oc1ccc(F)cc1
numeric.value: 6.74
//
compound: Nc1ccc(C2CCN(C(=O)c3cc(F)c(Oc4ccc(F)cc4)cc3F)CC2)nn1
numeric.value: 7.21
//
compound: Nc1ccc([C@@H]2CCN(C(=O)c3cc(F)c(Oc4ccc(F)cc4)cc3F)[C@H](CO)C2)nn1 [Compound 52b]
numeric.value: 7.10
//
compound: COc1cc(N)ncc1C1CCN(C(=O)c2ccc(OCc3nccs3)cc2F)CC1
numeric.value: 5.92
//
compound: COc1cc(C(=O)N2CCC(c3cnc(N)cc3OC)CC2)c(F)cc1OCC1CC(C)C1 (stereo not shown)
numeric.value: 6.37
//
compound: COc1cc(N)ncc1C1CCN(C(=O)c2ccc(OC[C@@H]3C[C@H]3C)cc2F)CC1 (relative stereo)
numeric.value: 6.10
//
compound: COc1cc(N)ncc1C1CCN(C(=O)c2ccc(OCc3ccon3)cc2F)CC1
numeric.value: 6.19
//
compound: Nc1ccc(C2CCN(C(=O)c3ccc(Oc4ccc(F)cc4)cc3F)CC2)nn1
numeric.value: 7.24
//
compound: COc1cc(C(=O)N2CCC(c3cnc(N)cc3OC)CC2)c(F)cc1OCC1CCC1
numeric.value: 6.87
//
compound: COc1cc(N)ncc1N1CCN(C(=O)c2cc(F)c(Oc3ccc(F)cc3)cc2F)C2(CC2)C1
numeric.value: 6.87

---

Target: human TRPC6 (Homo sapiens)
Construct: expressed in transfected cells
Experiment: High Throughput Screening Assay Method 1 (FLIPR membrane potential dye, OAG activation, HEK293 cells expressing human TRPC6)
Assay type: cell-based
Details: antagonist effect against human TRPC6, 60 μM OAG, read-out: Fluorescence TRPC6 IC50
Source text: This screening assay measures TRPC6 (transient receptor potential cation channel, subfamily C, member 6) ion channel activation via addition either of the commercially available DAG ligand analogue OAG (1-oleoyl-2-acetyl-sn-glycerol) or of the TRPC6 agonist 1-[1-(4,5,6,7,8-pentahydrocyclohepta[2,1-d]thiophen-2-ylcarbonyl)-4-piperidyl]-3-hydrobenzimidazol-2-one (GSK1702934A). […]
pIC50: −log10 of the molar value.
Use 6 as the dividing line for pIC50, with the line itself on the yes side and lower values as no.

compound: Nc1ccc(C2CCN(C(=O)c3ccc(Oc4ccc(C(F)(F)F)cc4)cc3)CC2)nn1 [Compound 2]
measured.on: human TRPC6 (Homo sapiens)
group: yes

compound: N#Cc1ccc(Oc2ccc(C(=O)N3CCN(c4ccc(N)nn4)CC3)cc2)cc1 [Compound 7]
measured.on: human TRPC6 (Homo sapiens)
group: no

compound: Nc1ccc(N2CCN(C(=O)c3ccc(Oc4ccccc4)cc3)CC2)cn1 [Compound 15]
measured.on: human TRPC6 (Homo sapiens)
group: yes

compound: Nc1ccc(C2CCN(C(=O)c3ccc(Oc4ccc(F)cc4)cc3)CC2)nn1 [Compound 10]
measured.on: human TRPC6 (Homo sapiens)
group: yes

compound: Nc1ccc(C2CCN(C(=O)c3ccc(Oc4ccc(OC(F)(F)F)cc4)cc3)CC2)nn1 [Compound 4]
measured.on: human TRPC6 (Homo sapiens)
group: yes

compound: Cc1ccc(Oc2ccc(C(=O)N3CCC(c4ccc(N)nn4)CC3)cc2)cc1 [Compound 5]
measured.on: human TRPC6 (Homo sapiens)
group: yes

compound: Nc1ccc(N2CCN(C(=O)c3ccc(Oc4ccc(C5CC5)cc4)cc3)CC2)nn1 [Compound 6]
measured.on: human TRPC6 (Homo sapiens)
group: yes

compound: Nc1ccc(N2CCN(C(=O)c3ccc(Oc4ccc(OC(F)(F)F)cc4)cc3)CC2)nn1 [Compound 21]
measured.on: human TRPC6 (Homo sapiens)
group: yes

compound: Nc1ccc(C2CCN(C(=O)c3ccc(Oc4ccc(Cl)cc4)cc3)CC2)nn1 [Compound 13]
measured.on: human TRPC6 (Homo sapiens)
group: yes

compound: CC(=O)c1ccc(Oc2ccc(C(=O)N3CCC(c4ccc(N)nn4)CC3)cc2)cc1 [Compound 16]
measured.on: human TRPC6 (Homo sapiens)
group: no

compound: Nc1ccc(N2CCN(C(=O)c3ccc(Oc4ccccc4)cc3)CC2)nn1 [Compound 24]
measured.on: human TRPC6 (Homo sapiens)
group: yes

compound: CC(C)c1ccc(Oc2ccc(C(=O)N3CCC(c4ccc(N)nn4)CC3)cc2)cc1 [Compound 17]
measured.on: human TRPC6 (Homo sapiens)
group: no

compound: COc1ccc(Oc2ccc(C(=O)N3CCC(c4ccc(N)nn4)CC3)cc2)cc1 [Compound 9]
measured.on: human TRPC6 (Homo sapiens)
group: yes

compound: Nc1ccc(C2CCN(C(=O)c3ccc(Oc4ccc(C5CC5)cc4)cc3)CC2)nn1 [Compound 12]
measured.on: human TRPC6 (Homo sapiens)
group: yes

---

This section presents compounds with their documented pIC50 values.
Biological target: human TRPC6 (Homo sapiens, UniProt Q9Y210)
Construct: expressed in transfected cells
Test: High Throughput Screening Assay Method 1 (FLIPR membrane potential dye, OAG activation, HEK293 cells expressing human TRPC6)
Assay type: cell-based
Details: antagonist effect against human TRPC6, 60 μM OAG, read-out: Fluorescence TRPC6 IC50
pIC50: −log10 of the molar value.

chemical.structure: Nc1ccc(N2CCN(C(=O)c3ccc(Oc4ccc(Cl)cc4)cc3)CC2)nn1
measured.on: human TRPC6 (Homo sapiens, UniProt Q9Y210)
pIC50: 5.98
--
chemical.structure: Nc1ccc(N2CCN(C(=O)c3ccc(Oc4ccc5c(c4)OCO5)cc3)CC2)nn1
measured.on: human TRPC6 (Homo sapiens, UniProt Q9Y210)
pIC50: 5.91
--
chemical.structure: CCc1ccc(Oc2ccc(C(=O)N3CCN(c4ccc(N)nn4)CC3)cc2)cc1
measured.on: human TRPC6 (Homo sapiens, UniProt Q9Y210)
pIC50: 5.94
